molecular target: Potassium voltage-gated channel subfamily KQT member 2 (Rattus norvegicus) (UniProt O88943); assay: KCNQ2 blockade in CHO cells – cell-based, FluxOR thallium flux, counter-screen for hERG block protector project, confirmation (AID 1946); conditions: FluxOR thallium flux fluorescence, at 10 µM, hits give low values, zero marks the 3-SD hit cutoff
Sequence (O88943 whole entry, looked up): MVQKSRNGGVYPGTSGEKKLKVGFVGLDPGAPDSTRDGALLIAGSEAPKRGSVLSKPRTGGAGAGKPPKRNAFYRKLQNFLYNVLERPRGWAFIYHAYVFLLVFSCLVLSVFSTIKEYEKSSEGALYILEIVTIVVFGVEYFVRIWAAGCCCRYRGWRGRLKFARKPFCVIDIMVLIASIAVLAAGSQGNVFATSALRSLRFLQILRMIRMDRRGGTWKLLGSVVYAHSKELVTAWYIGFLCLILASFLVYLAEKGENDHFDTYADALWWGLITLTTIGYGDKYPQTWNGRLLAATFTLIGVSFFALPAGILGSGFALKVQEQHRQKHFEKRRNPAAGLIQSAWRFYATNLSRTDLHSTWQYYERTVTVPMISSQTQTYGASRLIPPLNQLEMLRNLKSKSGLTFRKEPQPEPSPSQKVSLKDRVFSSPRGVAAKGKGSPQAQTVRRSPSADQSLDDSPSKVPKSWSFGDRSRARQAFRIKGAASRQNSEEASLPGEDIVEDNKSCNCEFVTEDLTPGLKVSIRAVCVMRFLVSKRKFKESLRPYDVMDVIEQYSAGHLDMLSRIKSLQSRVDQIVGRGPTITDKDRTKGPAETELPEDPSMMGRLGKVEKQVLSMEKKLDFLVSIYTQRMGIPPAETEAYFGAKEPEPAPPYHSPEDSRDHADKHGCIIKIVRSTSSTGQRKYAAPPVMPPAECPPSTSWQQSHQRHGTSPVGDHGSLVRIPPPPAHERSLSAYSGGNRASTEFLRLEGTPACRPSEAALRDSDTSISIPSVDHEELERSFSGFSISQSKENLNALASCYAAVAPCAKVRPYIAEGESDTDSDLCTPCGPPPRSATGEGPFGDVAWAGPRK
The campaign covered roughly 2,400 compounds. About 180 (7.5%) were called active. This excerpt belongs to a sample that is enriched for actives.
quantity-name: activity change vs negative control

IN: activity change vs negative control for CCc1cc2cc(C)cc(C)c2[nH]c1=S ?
OUT: 29.9% (inactive)

IN: activity change vs negative control for O=C(Nc1nnc(-c2ccccc2)o1)c1ccc(Cl)cc1 ?
OUT: 13.6% (inactive)

IN: activity change vs negative control for Cc1nnc(SCC(=O)Nc2nccs2)n1N ?
OUT: 10.1% (inactive)

IN: activity change vs negative control for O=C(CCc1ccccc1)Nc1nccs1 ?
OUT: 4.5% (inactive)

IN: activity change vs negative control for CC(C)Oc1cccc(C(=O)N2CCCC2)c1 ?
OUT: 9.7% (inactive)

IN: activity change vs negative control for COC(=O)Oc1ccc(/C=C/C(=O)OC(C)C)cc1OC(=O)OC ?
OUT: 24.5% (inactive)

IN: activity change vs negative control for O=C(Nc1nc(=S)ss1)c1ccc(Cl)cc1Cl ?
OUT: 122% (inactive)

IN: activity change vs negative control for O=S(=O)(NC(=S)NC1CCCCC1)c1ccc(Br)cc1 ?
OUT: 36.7% (inactive)

IN: activity change vs negative control for O=C(CNC(=O)c1ccccc1)NCc1ccc(Cl)cc1 ?
OUT: 10.8% (inactive)

IN: activity change vs negative control for CC(=O)Nc1ccc(S(=O)(=O)N2CCC(NC(=O)c3ccccc3)CC2)cc1 ?
OUT: 9.4% (inactive)

IN: activity change vs negative control for Cc1ccnc(SCCn2c(N3CC(C)OC(C)C3)nc3c2c(=O)n(C)c(=O)n3C)n1 (centres undefined) ?
OUT: -2% (active)

IN: activity change vs negative control for C/C(=N\NC(=O)c1cc2ccccc2cc1O)c1cc2ccccc2o1 ?
OUT: 112% (inactive)

IN: activity change vs negative control for O=C(Nc1nnc(-c2ccc3c(c2)CCCC3)o1)C1COc2ccccc2O1 (centres undefined) ?
OUT: 28% (inactive)

IN: activity change vs negative control for CCCCC(=O)Nc1ccc(NCc2ccc(C)s2)cc1 ?
OUT: 66.2% (inactive)

IN: activity change vs negative control for COc1ccc(CS(=O)(=O)CC2(O)CCN(C(=O)c3cccc(C(F)(F)F)c3)CC2)cc1 ?
OUT: -2.4% (active)

IN: activity change vs negative control for Cc1ccc(-c2nc(N)s[n+]2-c2ccccc2)cc1 ?
OUT: 42.6% (inactive)

IN: activity change vs negative control for CCOc1cc(N2CCOCC2)c(OCC)cc1NC(=O)Cn1nc(C)c([N+](=O)[O-])c1C ?
OUT: 12.9% (inactive)

IN: activity change vs negative control for S=c1nc(-c2ccc(Br)cc2)[nH]c2ccccc12 ?
OUT: 122% (inactive)

IN: activity change vs negative control for COCCn1c(=S)[nH]c2sc3c(c2c1=O)CCC(C)C3 (centres undefined) ?
OUT: 81% (inactive)

IN: activity change vs negative control for O=C(Cn1c(=O)c2cccn2c2ccccc21)NCCc1ccc(Cl)cc1 ?
OUT: -3.5% (active)

IN: activity change vs negative control for COc1ccc(C(=O)O)cc1S(=O)(=O)Nc1cccc(C(F)(F)F)c1 ?
OUT: 8% (inactive)

IN: activity change vs negative control for COc1ccc(NS(=O)(=O)c2ccc3ccccc3c2)c2ncccc12 ?
OUT: 2% (inactive)

IN: activity change vs negative control for Cc1ccc(NS(=O)(=O)c2ccc(NC(=O)c3ccccc3C(=O)O)cc2)cc1C ?
OUT: 10.8% (inactive)

IN: activity change vs negative control for N#Cc1c(NC(=O)c2cc(-n3cnnc3)ccc2Cl)sc2c1CCCC2 ?
OUT: 13% (inactive)
